# target.desc: D(1A) dopamine receptor (Rattus norvegicus)
# Sequence (P18901 whole entry): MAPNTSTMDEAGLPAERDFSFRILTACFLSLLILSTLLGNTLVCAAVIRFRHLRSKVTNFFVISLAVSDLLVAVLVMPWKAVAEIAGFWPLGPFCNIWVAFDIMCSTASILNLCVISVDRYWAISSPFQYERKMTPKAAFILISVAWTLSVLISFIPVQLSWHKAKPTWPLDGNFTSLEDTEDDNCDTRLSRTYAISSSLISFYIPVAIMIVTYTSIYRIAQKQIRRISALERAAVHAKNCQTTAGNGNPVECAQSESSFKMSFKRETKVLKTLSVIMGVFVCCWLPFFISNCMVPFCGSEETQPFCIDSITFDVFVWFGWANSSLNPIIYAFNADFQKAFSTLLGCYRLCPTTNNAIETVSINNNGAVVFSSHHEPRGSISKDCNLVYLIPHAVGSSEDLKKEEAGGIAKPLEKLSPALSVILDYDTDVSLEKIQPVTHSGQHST
# assay.comment: Binding affinity towards dopamine receptor D1 by displacement of [3H]-SCH- radioligand in rat striatal membranes

{"columns": ["compound", "result.unit", "IC50"],
 "data": [
  ["CN1CCC(C2=CC(c3ccc(F)cc3)c3ccc(Cl)cc32)CC1 (stereo not given)", "nM", 12],
  ["CN1CC=C(C2=CC(c3ccc(F)cc3)c3ccc(Cl)cc32)CC1 (stereo not given)", "nM", 23],
  ["OCCN1CCN([C@@H]2C[C@@H](c3ccc(F)cc3)c3ccc(C(F)(F)F)cc32)CC1", "nM", 19],
  ["CN1CCN(C2CC(c3ccc(F)cc3)c3ccc(Cl)cc32)CC1 (stereo not given)", "nM", 9.5],
  ["CN1CC=C(c2cn(-c3ccc(F)cc3)c3ccc(Cl)cc23)CC1", "nM", 9.8]
]}
